test system: OVCAR-3; assay: NCI tumour cell line growth inhibition, 48 h
The source made the active and inactive calls. No stated cut-off is given here; in the data, active = GI50 up to about 1.1 µM and inactive = higher.
A correct response names exactly one class from t for active, f for inactive

O=C1c2ccccc2C(=O)c2c(/C=C\N3CCCCC3)ccnc21	f
C[C@]12CC(c3ccccc3O1)C(C#N)C(=O)N2 (some centres not stated)	f
COCN1C(=O)C2CC(/C=C/C(N)=O)=CN2C(=O)c2ccccc21 (configuration not stated)	f

Prompt: Could you kindly confirm the outcome this assay logged for CCCCOc1ccc(OCCCCCCCCCC[N+](C)(C)C)cc1 ?
Completion: f

Prompt: Could you kindly confirm the outcome this assay logged for COc1ccc(-c2oc3c(CC(=O)O)cccc3c(=O)c2OC)cc1 ?
Completion: f

Prompt: Could you kindly confirm the outcome this assay logged for CCc1nc(N)nc(N)c1-c1ccc(Cl)c(N=[N+]=[N-])c1 ?
Completion: f

Prompt: Could you kindly confirm the outcome this assay logged for CC(=O)Oc1ccc2c(c1)O/C(=C\c1ccc(O)cc1)C2=O ?
Completion: f

Prompt: Could you kindly confirm the outcome this assay logged for CS(=O)(=O)C[S+]([O-])C[S+]([O-])C[S+]([O-])CC(NC(=O)CCC(N)C(=O)O)C(=O)O (configuration not stated) ?
Completion: f

Prompt: Could you kindly confirm the outcome this assay logged for CCCCc1ccc(-n2sc3ncc(C)cc3c2=O)cc1 ?
Completion: f

Prompt: Could you kindly confirm the outcome this assay logged for O=c1[nH]c2ccccc2nc1CBr ?
Completion: f

Prompt: Could you kindly confirm the outcome this assay logged for CC(C)N(c1cc2c(cc1F)c(=O)c(C(=O)O)cn2-c1ccc(N2CCN(C)CC2)cn1)C(C)C ?
Completion: f

Prompt: Could you kindly confirm the outcome this assay logged for O=C(O)C1C(C(=O)O)C2C(=O)C=CC1N2Cc1ccccc1 (configuration not stated) ?
Completion: f

Prompt: Could you kindly confirm the outcome this assay logged for COc1cccc(/C=C2\CCCCCC2=O)c1 ?
Completion: f

Prompt: Could you kindly confirm the outcome this assay logged for O=[N+]([O-])c1ccc(S(=O)(=O)Cc2ccccc2)c([N+](=O)[O-])c1 ?
Completion: f
